Hi there, I'd appreciate the recorded activity (%) at 10 μM for every entry that follows.
- assayTarget: human M1 receptor (hCHRM1) (Homo sapiens)
- Construct: expressed in transfected cells; host or cells: CHO-K1
- Sequence (P11229 1-460): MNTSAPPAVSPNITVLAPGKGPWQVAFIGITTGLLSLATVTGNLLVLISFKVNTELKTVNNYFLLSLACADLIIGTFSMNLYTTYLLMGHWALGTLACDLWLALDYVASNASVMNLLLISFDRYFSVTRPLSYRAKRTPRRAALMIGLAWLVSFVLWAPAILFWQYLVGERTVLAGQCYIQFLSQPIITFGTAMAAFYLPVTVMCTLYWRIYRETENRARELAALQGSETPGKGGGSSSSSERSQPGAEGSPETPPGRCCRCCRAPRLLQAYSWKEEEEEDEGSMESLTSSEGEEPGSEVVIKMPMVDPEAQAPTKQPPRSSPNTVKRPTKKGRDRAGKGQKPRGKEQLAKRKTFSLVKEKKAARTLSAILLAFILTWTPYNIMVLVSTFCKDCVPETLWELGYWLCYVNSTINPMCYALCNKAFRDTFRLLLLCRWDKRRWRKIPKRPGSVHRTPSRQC
- assayInfo: Measurement of M1 receptor positive allosteric modulator (M1PAM) activity, calcium fluorescence (FLIPRtetra) in CHO-K1 cells in the presence of acetylcholine at EC20
- Assay type: cell-based
- experimentalConditions: test compound 10 μM, in the presence of acetylcholine at EC20 (final 0.6 nM), CHO-K1 cells expressing hCHRM1
Please respond with the number in % and leave the unit unwritten.

input: Entry Cc1cc(-c2ccc(CN3Cc4cccc(OCC5CCCO5)c4C3=O)cc2)cnn1 (stereo not drawn) [Example 356] : reported activity (%) at 10 μM = ?
output: 101

input: Can you look up the measured activity (%) at 10 μM of O=C1c2c(ccnc2OCC2CCCO2)CN1Cc1ccc(-c2cnn3ccccc23)cc1 (stereo not drawn) [Example 289] for me?
output: 89

input: // query activity (%) at 10 μM value for entry Cc1nn(C)cc1-c1ccc(CN2Cc3ccnc(OCC4CCOC4)c3C2=O)cc1 (stereo not drawn) [Example 265]
output: 96

input: Give its activity (%) at 10 μM value. Item: Cc1nn(C)cc1-c1ccc(CN2Cc3cccc(O[C@H]4CCC[C@@H]4O)c3C2=O)cc1 (relative stereo) [Example 226]
output: 98

input: What value of activity (%) at 10 μM has been recorded for this entry: Cn1cc(-c2ccc(CN3Cc4ccnc(Oc5ccc(C(F)(F)F)cc5F)c4C3=O)cc2)cn1 [Example 304]
output: 93

input: Report activity (%) at 10 μM for Cc1nn(C)cc1-c1ccc(CN2Cc3ccnc(O[C@@H]4CCC[C@H]4O)c3C2=O)cc1 (single isomer, unassigned) [Example 256] please.
output: 101

input: Item under review: CCNC(=O)c1ccc(CN2Cc3ccnc(Oc4ccc(C(F)(F)F)cc4F)c3C2=O)cc1F [Example 436] . Reported activity (%) at 10 μM?
output: 106

input: What does the record list as activity (%) at 10 μM for Cc1cc(-c2ccc(CN3Cc4ccnc(Oc5cc(CO)ccc5F)c4C3=O)cc2)ccn1 [Example 290] ?
output: 91

input: Item COCc1ccc(F)c(Oc2nccc3c2C(=O)N(Cc2ccc(-c4cnn(C)c4)cc2)C3)c1 [Example 302] has what recorded activity (%) at 10 μM?
output: 92

input: Could you tell me which activity (%) at 10 μM is on file for Cn1ccc(-c2ccc(CN3Cc4ccnc(OCc5ccccc5F)c4C3=O)c(F)c2)n1 [Example 342] ?
output: 96

input: Record request: activity (%) at 10 μM value, item O=C1c2c(ccnc2O[C@H]2CCCC[C@@H]2O)CN1Cc1ccc(Cl)s1 (relative stereo) [Example 401]
output: 92

input: Would you mind telling me what activity (%) at 10 μM value was observed for Cc1nn(C)cc1-c1ccc(CN2Cc3ccnc(OC4CCc5cccnc54)c3C2=O)c(F)c1 (stereo not drawn) [Example 346] ?
output: 85

input: Given the compound Cn1ccc(-c2ccc(CN3Cc4ccnc(OCC5CCCCO5)c4C3=O)cc2)n1 (stereo not drawn) [Example 253] , what is its reported activity (%) at 10 μM?
output: 100

input: Entry CCc1cc(F)c(Oc2nccc3c2C(=O)N(Cc2ccc(-n4cnc(C)c4)cc2)C3)c(F)c1 [Example 429] : reported activity (%) at 10 μM = ?
output: 109

input: Record request: activity (%) at 10 μM value, item Cc1nn(C)cc1-c1ccc(CN2Cc3cccc(O[C@@H]4CCOC[C@H]4O)c3C2=O)cc1 (single isomer, unassigned) [Example 248]
output: 117

input: Look up activity (%) at 10 μM: Cc1cc(-c2ccc(CN3Cc4cccc(O[C@H]5CCCC[C@@H]5O)c4C3=O)cc2)cnn1 (relative stereo) [Example 355]
output: 95

input: What measured activity (%) at 10 μM goes with Cn1cc(-c2ccc(CN3Cc4cccc(Oc5c(F)cc(C#N)cc5F)c4C3=O)cn2)cn1 [Example 378] ?
output: 98

input: Fill in the blank: the reported activity (%) at 10 μM of O=C1c2c(cccc2O[C@H]2CCCC[C@@H]2O)CN1Cc1ccc(Cl)nc1 (relative stereo) [Example 43] is ____.
output: 99

input: Need activity (%) at 10 μM, item O=C1c2c(cccc2O[C@@H]2CCOC[C@H]2O)CN1Cc1ccc(Br)cc1 (single isomer, unassigned) [Example 268]
output: 103

input: Field request: activity (%) at 10 μM | item: C[C@@H](O)[C@@H](C)Oc1nccc2c1C(=O)N(Cc1ccc(-c3ccn(C)n3)cc1)C2 [Example 426]
output: 102

input: Which activity (%) at 10 μM is reported for this compound? Cn1cc(-c2ccc(CN3Cc4cccc(O[C@H]5CCC[C@@H]5O)c4C3=O)cc2)cn1 (relative stereo) [Example 4]
output: 101

input: Can you look up the measured activity (%) at 10 μM of Cc1cn(-c2ccc(CN3Cc4ccnc(Oc5ccc(C(F)(F)F)cc5F)c4C3=O)cc2)cn1 [Example 418] for me?
output: 95

input: Entry under review: O=C1c2c(cccc2O[C@H]2CCCC[C@@H]2O)CN1Cc1ccc(-c2ccn[nH]2)cc1 (relative stereo) [Example 31] . Reported activity (%) at 10 μM?
output: 105

input: // lookup activity (%) at 10 μM for O=C1c2c(cccc2O[C@H]2CCCC[C@@H]2O)CN1Cc1ccc(-c2ccnnc2)cc1 (relative stereo) [Example 352]
output: 94

input: Request the reported activity (%) at 10 μM associated with Cc1nn(C)cc1-c1ccc(CN2Cc3ncnc(Oc4c(F)cccc4F)c3C2=O)c(F)c1 [Example 372]
output: 109

input: Would you kindly share the measured activity (%) at 10 μM for Cc1cc(-c2ccc(CN3Cc4ccnc(Oc5ccc(Cl)cc5F)c4C3=O)cc2)ccn1 [Example 383] ?
output: 86

input: Name the recorded activity (%) at 10 μM for Cn1cc(-c2ccc(CN3Cc4ncnc(Oc5c(F)cc(F)cc5F)c4C3=O)cc2)nn1 [Example 370] .
output: 97

input: What activity (%) at 10 μM value was documented for this compound, Cn1cc(-c2ccc(CN3Cc4cccc(OCC5CCCO5)c4C3=O)c(F)c2)nn1 (stereo not drawn) [Example 330] ?
output: 104

input: I'd like to know its activity (%) at 10 μM. The compound in question is O=C1c2c(cccc2O[C@@H]2COCC[C@H]2O)CN1Cc1ccc(F)cc1F (single isomer, unassigned) [Example 301]
output: 89

input: Could you tell me which activity (%) at 10 μM is on file for Cn1cc(-c2ccc(CN3Cc4cccc(OCCN5CCCCC5)c4C3=O)cc2)cn1 [Example 21] ?
output: 105

* * *

- assayTarget: human M1 receptor (hCHRM1) (Homo sapiens)
- Construct: expressed in transfected cells; host or cells: CHO-K1
- assayInfo: Measurement of M1 receptor positive allosteric modulator (M1PAM) activity, calcium fluorescence (FLIPRtetra) in CHO-K1 cells in the presence of acetylcholine at EC20
- Format: cell-based
- experimentalConditions: test compound 10 μM, in the presence of acetylcholine at EC20 (final 0.6 nM), CHO-K1 cells expressing hCHRM1
quantityName: activity (%) at 10 μM
Just the number please, in %, no unit attached.

input: Need activity (%) at 10 μM, item `Cn1ccc(-c2ccc(CN3Cc4ccnc(Oc5c(F)cc(C#N)cc5F)c4C3=O)cc2)n1`
output: 99

input: Reported activity (%) at 10 μM, compound Cn1ccc(-c2ccc(CN3Cc4ccnc(O[C@H]5CCC[C@@H]5O)c4C3=O)cc2)n1 (relative stereo) : ____
output: 108

input: # lookup: activity (%) at 10 μM of O=C1c2c(ccnc2O[C@H]2CCCC[C@@H]2O)CN1Cc1ccc(Br)s1 (relative stereo)
output: 88

input: Fill in: activity (%) at 10 μM of O=C1c2c(cccc2O[C@@H]2COCC[C@H]2O)CN1Cc1ccc(Cl)cc1 (single isomer, unassigned) is ___
output: 100

input: Looking for the measured activity (%) at 10 μM of `NC(=O)c1ccc(CN2Cc3ccnc(Oc4ccc(C5CC5)cc4F)c3C2=O)cc1` , can you help?
output: 102

input: Reported activity (%) at 10 μM for `Cn1cc(-c2ccc(CN3Cc4ccnc(Oc5ccc(OC(F)(F)F)cc5C#N)c4C3=O)cc2)cn1` : what is it?
output: 94

input: For `Cn1cc(-c2ccc(CN3Cc4ccnc(Oc5ccc(CC#N)cc5F)c4C3=O)cc2)cn1` , what is its reported activity (%) at 10 μM?
output: 95

input: Query (compound): `Cn1cc(-c2ccc(CN3Cc4ccnc(Oc5ccc(C(C)(C)O)cc5F)c4C3=O)cc2)cn1` ; field requested: activity (%) at 10 μM
output: 99

input: Dear colleague, I am looking for the recorded activity (%) at 10 μM of the following compound: `Cn1cc(-c2ccc(CN3Cc4ccnc(OCCC5CC5)c4C3=O)cc2)nn1`
output: 110

input: Given the entry Cn1ccc(-c2cc(F)c(CN3Cc4ccnc(O[C@H]5CCC[C@@H]5O)c4C3=O)c(F)c2)n1 (relative stereo) , report its measured activity (%) at 10 μM.
output: 97

input: Value lookup for activity (%) at 10 μM; key = `Cc1nn(C)cc1-c1ccc(CN2Cc3ccnc(OCc4ccccc4F)c3C2=O)c(F)c1`
output: 94

input: Can you share its activity (%) at 10 μM? I mean this compound: `Cc1cc(-c2ccc(CN3Cc4cccc(Oc5c(F)cccc5C#N)c4C3=O)cc2)ccn1`
output: 102
